Tested on: SR leukemia
Assay: NCI-60 one-dose screen, 48 h (100 = growth as untreated, 0 = no growth, -100 = all killed)
Details: 10 µM unless noted
The panel holds about 83,000 compounds, 20% with a hit somewhere; the sample as a whole holds those more often.
reported-metric: growth (%)
Give the quantity in %, number only.

Known results for molecules:
Cc1ccc(Cc2cnc(NC(=O)c3cc(Br)cs3)s2)cc1
18.2
CCOC(=O)CSc1ncnc2c1c(-c1ccccc1)c(-c1ccccc1)n2-c1ccc(C)cc1
80.4
C[C@@H]1CCC[C@H]1CC(N)C(=O)O (some centres undefined)
108
CC(=O)N(N=Nc1ccccc1)c1cccc2ccccc12
74.1

Give its growth value. Item: C#CCOc1cccc(Nc2ncnc3c(NC(=O)C=C)cccc23)c1
9.57

Which growth is reported for this molecule? CCCCCCCCCCCCCCCC(N)c1ccccc1 (centres undefined)
-26.1

Can you look up the measured growth of C=C1C(=O)O[C@H]2[C@H]1CC/C(COC(=O)CCSCCC(=O)OC/C1=C/CC[C@@]3(C)O[C@H]3[C@H]3OC(=O)C(=C)[C@@H]3CC1)=C\CC[C@@]1(C)O[C@@H]21 for me?
-15.8

Param item = Fc1ccc(-c2nn(-c3ccccc3)cc2-c2nc3ccccc3o2)cc1 ; retrieve measured growth.
43.6

Requested read-out: growth. Entry: O=C(CCCCCCN1CC(=O)N2[C@H](c3cc(Br)cs3)c3[nH]c4ccccc4c3C[C@H]2C1=O)NO
17.2

# growth lookup, item Cc1ccccc1/C=C1\CN(C(=O)OC(C)(C)C)C/C(=C\c2ccccc2C)C1=O
8.93

Returns the measured growth for the input molecule. Input: CCn1c(=S)[nH]c2c(=O)n(C)c(=O)n(C)c21
110

Fill in: growth of O=C(NNc1nccc(Nc2ccc(S(=O)(=O)Nc3ccncc3)cc2)n1)c1ccccc1 is ___
87.6

What does the data say about its growth? Entry: CCN(CC)C(=S)SC(SC(=S)N(CC)CC)C(=O)c1nnn(-c2ccc([N+](=O)[O-])cc2)c1C
55.3

Item under review: CCn1cc(C(=O)N/N=C/c2cccs2)c(=O)c2cc(F)c(N3CCNC(C)C3)c(F)c21 (centres undefined) . Reported growth?
-4.21

Returns the measured growth for the input molecule. Input: O=C(c1ccc(Cl)cc1)N1CCN(c2ccnc3cc(Cl)ccc23)CC1
122

Recorded growth of COC(=O)/C(CCC=C(C)C)=C1\[C@@H](OC(C)=O)C[C@@]2(C)[C@H]1C[C@@H](O)[C@H]1[C@@]3(C)CC[C@H](NCCN)[C@@H](C)[C@@H]3CC[C@@]12C , please.
-17.8

Given the entry CCN1CCN(c2cc(C(=O)Nc3nc(-c4cc(OC)c(OC)c(OC)c4)cs3)cc(C(F)(F)F)c2)CC1 , report its measured growth.
9.19

Dear colleague, I am looking for the recorded growth of the following molecule: COc1ccc(-c2cc(-c3ccc(Cl)cc3)c(C#N)c(=O)n2CCCCC(=O)Nc2ccccc2N)cc1
15.5

Recorded growth of O=C1c2cccnc2C(=O)c2c1c(C(=O)NCCCN1CCCCC1)c1ccccn21 , please.
-15.3

----------
System: EKVX NSCLC
Experiment: NCI-60 one-dose screen, 48 h (100 = growth as untreated, 0 = no growth, -100 = all killed)
Settings: 10 µM unless noted
The panel holds about 83,000 compounds, 20% with a hit somewhere; the sample as a whole holds those more often. Calls of active or inactive are those of the source. Rule for the calls: active = growth percent below 10; inactive = the rest.
reported-metric: growth

Some solved cases for reference:
COc1cc2c(c(OC)c1OC)-c1ccc(OC)c(=O)cc1[C@@H](NC(=O)CCl)CC2
74.3% (inactive)
COC1=CC(c2ccc[nH]2)=N/C1=C\c1[nH]c(C)c(C(=O)OCc2ccccc2)c1C
-33.5% (active)
COC(=O)c1c2c(c(C)[n+]([O-])c1C)C(=O)C=C(NCc1ccc(Br)cc1)C2=O
-85.3% (active)
C=C1C(=O)O[C@H]2[C@H]1CC/C(COC(=O)CCSCCC(=O)OC/C1=C/CC[C@@]3(C)O[C@H]3[C@H]3OC(=O)C(=C)[C@@H]3CC1)=C\CC[C@@]1(C)O[C@@H]21
12% (inactive)

Record request: growth value, item C=C1C(=O)O[C@H]2[C@H]1CC/C(COC(=O)N[C@H]1C[C@H](O[C@H]3C[C@](O)(C(=O)CO)Cc4c(O)c5c(c(O)c43)C(=O)c3c(OC)cccc3C5=O)O[C@@H](C)[C@H]1O)=C\CC[C@@]1(C)O[C@@H]21
103% (inactive)

Which value of growth has been reported for O=C(Nc1nc2ccc(F)cc2s1)c1cccnc1Nc1ccc(Cl)cc1 in the records?
9.81% (active)

Record request: growth value, item O=C(/C=C/c1ccccc1)c1cccc(OCCCOc2cccc(C(=O)/C=C/c3ccccc3)c2)c1
103% (inactive)
